- TARGET SYSTEM: CYP2C8 (Homo sapiens, UniProt P10632)
- Construct: Pooled human microsomes were obtained from Sekisui XenoTech, KS; tissue Sekisui XenoTech, KS; host or cells: pooled human liver microsomes
- Sequence (P10632 whole entry): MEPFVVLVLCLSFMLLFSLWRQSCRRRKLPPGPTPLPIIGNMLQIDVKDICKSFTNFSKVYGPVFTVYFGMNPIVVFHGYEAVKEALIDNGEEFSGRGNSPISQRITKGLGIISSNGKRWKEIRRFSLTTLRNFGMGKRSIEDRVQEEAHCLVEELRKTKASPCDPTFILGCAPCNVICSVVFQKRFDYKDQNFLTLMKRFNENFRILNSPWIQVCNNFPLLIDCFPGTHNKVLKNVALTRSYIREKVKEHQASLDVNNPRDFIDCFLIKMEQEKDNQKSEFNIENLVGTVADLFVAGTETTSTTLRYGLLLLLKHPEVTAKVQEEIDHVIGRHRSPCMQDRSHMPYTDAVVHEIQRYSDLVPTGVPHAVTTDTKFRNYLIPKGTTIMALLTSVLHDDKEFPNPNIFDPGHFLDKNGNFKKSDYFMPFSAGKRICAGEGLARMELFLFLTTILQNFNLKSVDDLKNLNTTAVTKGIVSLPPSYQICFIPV
- TEST DESCRIPTION: CYP Inhibition Assay (CYP2C8, human liver microsomes, paclitaxel substrate)
- Assay type: in vitro ADME
- RECORDED CONDITIONS: pH 7.4; pooled human liver microsomes 0.1 mg/mL, probe substrate paclitaxel
# Lookup of reported inhibition at 5 min keyed by entry

[in] # get_value(readout='inhibition at 5 min', item= CC(C)N([C@H]1CCC2=Cc3c(cnn3-c3ccc(F)cc3)C[C@]2(C(=O)c2cc(Cl)ccn2)C1)S(=O)(=O)c1cnn(C)n1 )
[out] 75 to 90%

[in] Entry under review: CCN([C@H]1CCC2=Cc3c(cnn3-c3ccc(F)cc3)C[C@]2(C(=O)c2cc(C(F)(F)F)ccn2)C1)S(=O)(=O)c1cnn(C)c1 . Reported inhibition at 5 min?
[out] 50 to 75%

***
[in] What measured inhibition at 5 min goes with CN([C@H]1CCC2=Cc3c(cnn3-c3ccc(F)cc3)C[C@]2(C(=O)c2ccc(C(F)(F)F)cn2)C1)S(=O)(=O)c1cnn(C)n1 ?
[out] 50 to 75%

[in] Give the measured inhibition at 5 min of Cn1cc(S(=O)(=O)N(C2CC2)[C@H]2CCC3=Cc4c(cnn4-c4ccc(F)cc4)C[C@]3(C(=O)c3cc(C(F)(F)F)ccn3)C2)nn1 .
[out] 50 to 75%

[in] Given the compound Cn1ccc(S(=O)(=O)N(C2CC(F)(F)C2)[C@H]2CCC3=Cc4c(cnn4-c4ccc(F)cc4)C[C@]3(C(=O)c3cc(C(F)(F)F)ccn3)C2)n1 , what is its reported inhibition at 5 min?
[out] 25 to 50%

[in] Sample O=C(c1ncc(C(F)(F)F)s1)[C@]12Cc3cnn(-c4ccc(F)cc4)c3C=C1CC[C@H](N(C1CC1)S(=O)(=O)c1ccc(F)cc1)C2 — what was its inhibition at 5 min?
[out] ≤ 25%

[in] Name the recorded inhibition at 5 min for O=C(c1cc(F)ccn1)[C@]12Cc3cnn(-c4ccc(F)cc4)c3C=C1CC[C@H](N(C1CC1)S(=O)(=O)c1ccc(Cl)nc1)C2 .
[out] 25 to 50%

[in] Requested field: inhibition at 5 min. Item: Cn1cnc(S(=O)(=O)N(CC2CC2)[C@H]2CCC3=Cc4c(cnn4-c4ccc(F)cc4)C[C@]3(C(=O)c3ncc(C(F)(F)F)s3)C2)n1
[out] 25 to 50%

[in] Need inhibition at 5 min of Cn1ccc(S(=O)(=O)[C@@]2(F)CCC3=Cc4c(cnn4-c4ccc(F)cc4)C[C@]3(C(=O)c3ccc(C(F)(F)F)cn3)C2)n1 , thanks.
[out] ≤ 25%

[in] I am curious: what inhibition at 5 min value has been reported for Cc1ncc(S(=O)(=O)N(C2CC2)[C@H]2CCC3=Cc4c(cnn4-c4ccc(F)cc4)C[C@]3(C(=O)c3cc(C(F)(F)F)ccn3)C2)n1C ?
[out] 25 to 50%

* * *

- TARGET SYSTEM: GR (Homo sapiens, UniProt P04150)
- Construct: expressed in transfected cells; host or cells: CHO-K1
- Sequence (P04150 whole entry): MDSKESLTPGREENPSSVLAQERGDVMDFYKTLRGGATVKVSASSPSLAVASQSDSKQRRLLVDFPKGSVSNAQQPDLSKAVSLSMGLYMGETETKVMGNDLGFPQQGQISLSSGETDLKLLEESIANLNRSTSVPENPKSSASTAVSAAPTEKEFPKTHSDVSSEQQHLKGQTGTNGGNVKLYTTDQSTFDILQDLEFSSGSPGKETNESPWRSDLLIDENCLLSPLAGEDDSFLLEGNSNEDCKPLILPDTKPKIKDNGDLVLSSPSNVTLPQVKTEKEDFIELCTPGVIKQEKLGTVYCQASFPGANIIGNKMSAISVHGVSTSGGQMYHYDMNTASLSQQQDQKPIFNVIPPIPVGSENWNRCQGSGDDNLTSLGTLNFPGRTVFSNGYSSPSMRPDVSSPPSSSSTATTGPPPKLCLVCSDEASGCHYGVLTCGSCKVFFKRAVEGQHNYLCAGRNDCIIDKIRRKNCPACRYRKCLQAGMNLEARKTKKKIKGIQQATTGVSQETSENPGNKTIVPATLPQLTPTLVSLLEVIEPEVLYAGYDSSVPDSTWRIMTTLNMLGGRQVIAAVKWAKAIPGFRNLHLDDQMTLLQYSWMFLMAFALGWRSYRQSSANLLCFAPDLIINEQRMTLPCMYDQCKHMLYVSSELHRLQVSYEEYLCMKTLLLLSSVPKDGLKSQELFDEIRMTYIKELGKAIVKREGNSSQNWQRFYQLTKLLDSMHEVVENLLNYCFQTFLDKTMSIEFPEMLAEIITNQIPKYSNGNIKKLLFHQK
- TEST DESCRIPTION: In Vitro GR Luciferase Reporter Assay (antagonist mode, CHO-K1-GR-MMTV-Luc reporter cells)
- Format: cell-based
- RECORDED CONDITIONS: antagonist mode, 10 nM Dexamethasone
pIC50: −log10 of the molar value.
QUANTITY MEASURED: pIC50

[in] Form: Entry = C[C@@]1(S(=O)(=O)c2ccccc2)CCC2=Cc3c(cnn3-c3ccc(F)cc3)C[C@]2(C(=O)c2ccccn2)C1 (single isomer, unassigned) [Example 117] | System = GR (Homo sapiens, UniProt P04150) | pIC50 = ____
[out] 6.00 to 7.00

***
[in] Report pIC50 for Cn1cc(S(=O)(=O)N(C2CC2)[C@H]2CCC3=Cc4c(cnn4-c4ccc(F)cc4)C[C@]3(C(=O)c3cc(Cl)ccn3)C2)nn1 tested on GR (Homo sapiens, UniProt P04150).
[out] ≥ 7.00

[in] Request - read-out pIC50 | tested on GR (Homo sapiens, UniProt P04150) | compound Cn1cnc(S(=O)(=O)N(CCF)[C@H]2CCC3=Cc4c(cnn4-c4ccc(F)cc4)C[C@]3(C(=O)c3ncc(C(F)(F)F)s3)C2)n1
[out] ≥ 7.00

[in] Record CN([C@H]1CCC2=Cc3c(cnn3-c3ccc(F)cc3)C[C@]2(C(=O)c2nccs2)C1)S(=O)(=O)c1cnn(C)n1 : what is its pIC50 with GR (Homo sapiens, UniProt P04150)?
[out] ≥ 7.00
